Data origin, for the record: patent US20170342144A1

Readings of kd var/kd wt for the listed binders
systemName: T1, human TGFβ2 (human, UniProt P61812 303-414)
T1 construct: also called TGFβ2 homodimer
T1 sequence: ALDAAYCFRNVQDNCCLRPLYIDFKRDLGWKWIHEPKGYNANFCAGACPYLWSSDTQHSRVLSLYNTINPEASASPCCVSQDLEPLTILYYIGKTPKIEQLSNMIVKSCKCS
experimentNotes: Biacore off-rate vs wt GC1008, 50 nM
# print the numeric value only

// below: answered binders
1) N32T (antibody, V domains shown, GC1008 IgG4 variant) VH: QVQLVQSGAEVKKPGSSVKVSCKASGYTFSSTVISWVRQAPGQGLEWMGGVIPIVDIANYAQRFKGRVTITADESTSTTYMELSSLRSEDTAVYYCASTLGLVLDAMDYWGQGTLVTVSS VL: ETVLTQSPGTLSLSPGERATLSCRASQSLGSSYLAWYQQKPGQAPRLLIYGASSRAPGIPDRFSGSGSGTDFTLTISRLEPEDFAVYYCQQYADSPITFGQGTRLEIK = 1.2
2) E74S (antibody, V domains shown, GC1008 IgG4 variant) VH: QVQLVQSGAEVKKPGSSVKVSCKASGYTFSSNVISWVRQAPGQGLEWMGGVIPIVDIANYAQRFKGRVTITADSSTSTTYMELSSLRSEDTAVYYCASTLGLVLDAMDYWGQGTLVTVSS VL: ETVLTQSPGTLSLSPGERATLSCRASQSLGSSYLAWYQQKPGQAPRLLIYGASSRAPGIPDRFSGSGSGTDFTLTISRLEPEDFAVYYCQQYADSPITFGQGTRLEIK = 0.7

# input for lookup
// query Consider the binder I54V (antibody, V domains shown, GC1008 IgG4 variant) VH: QVQLVQSGAEVKKPGSSVKVSCKASGYTFSSNVISWVRQAPGQGLEWMGGVIPVVDIANYAQRFKGRVTITADESTSTTYMELSSLRSEDTAVYYCASTLGLVLDAMDYWGQGTLVTVSS VL: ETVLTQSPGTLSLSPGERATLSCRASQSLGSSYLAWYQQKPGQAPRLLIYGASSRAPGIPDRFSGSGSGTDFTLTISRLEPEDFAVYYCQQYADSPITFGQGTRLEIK and give its measured kd var/kd wt.
// result 1
